test: phenyl-1,4-benzoquinone (PBQ) induced writhing test (analgesic effect); assay type: in vivo, KTC-ICR rats; conditions: Mus musculus; PBQ; dose reducing writhing to 50% of control; read-out: ED50
I'd appreciate it if you could supply ED50 values for the items below.
Give the value in mg/kg but do not write mg/kg after it.

Ask | ED50 lookup needed for CC(C)Cc1ccc(C(C)C(=O)O)cc1 (stereo not shown) , thanks.
Reply | 11

Ask | Similarly, CCCCCCCC/C=C\CCCCCCCC(=O)NCc1ccc(OCCN)c(OC)c1 [NE-21610, reference compound] ?
Reply | 38.3

Ask | Similarly, COc1cc(CC(=O)NCCOc2ccc(C)c(C)c2)ccc1OCCN ?
Reply | 9.53

Ask | Similarly, COc1cc(CC(=O)NCCOCc2ccc(C)c(C)c2)ccc1OCCN ?
Reply | 10.9

Ask | Similarly, COc1ccc2cc([C@H](C)C(=O)O)ccc2c1 ?
Reply | 17.1

Ask | Similarly, CCCCC1C(=O)N(c2ccccc2)N(c2ccccc2)C1=O ?
Reply | 79.8

Ask | Similarly, COc1cc(CC(=O)NCCCOc2ccc(C)c(C)c2)ccc1OCCN ?
Reply | 7.02

###

experiment: acetic acid-induced writhing test (analgesic effect); format: in vivo, KTC-ICR rats; conditions: Mus musculus; acetic acid; dose reducing writhing to 50% of control; read-out: ED50
observable: ED50

Ask | ED50 lookup needed for COc1cc(CC(=O)NCCSc2ccc(C)c(C)c2)ccc1OCCN , thanks.
Reply | 0.48 mg/kg

Ask | Similarly, CCCCCCCC/C=C\CCCCCCCC(=O)NCc1ccc(OCCN)c(OC)c1 [NE-21610, reference compound] ?
Reply | > 300 mg/kg

Ask | Similarly, COc1cc(CC(=O)NCCSc2ccc(C)cc2)ccc1OCCN ?
Reply | 0.84 mg/kg

Ask | Similarly, COc1cc(CC(=O)NCCOCc2ccc(C)c(C)c2)ccc1O ?
Reply | 2.08 mg/kg
